Entry source: patent US10144715B2

assayTarget: Gal4 DNA binding domain fused to the LBD of LXRα in HEK293 cells (Homo sapiens (Human), UniProt Q13133)
Sequence (Q13133 209-447): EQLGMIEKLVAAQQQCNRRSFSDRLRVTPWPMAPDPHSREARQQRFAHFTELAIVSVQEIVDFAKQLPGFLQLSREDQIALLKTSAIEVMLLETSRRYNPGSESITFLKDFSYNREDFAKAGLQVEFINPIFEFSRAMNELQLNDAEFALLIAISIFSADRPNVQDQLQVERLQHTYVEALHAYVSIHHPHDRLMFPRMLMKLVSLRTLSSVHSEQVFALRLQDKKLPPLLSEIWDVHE
assayExplanation: LXR luciferase transcriptional reporter gene assay, antagonist mode (200 nM T0901317), LXRα
Assay type: cell-based
conditionLabel: antagonist mode, 200 nM T0901317, HEK293 reporter gene assay; read-out: Cell LXRα IC50
parameterMeasured: pIC50
# log scale: pIC50 equals minus log10 of the concentration in mol/L

Some solved cases for reference:
molecule	pIC50
CCCCN(C)C(=O)c1cnc(N2CCN(c3ccc(F)c(S(C)(=O)=O)c3)C[C@H]2C(C)C)nc1C(F)(F)F	6.30
CC(C)[C@@H]1CN(c2cccc(S(C)(=O)=O)c2)CCN1c1ncccn1	5.26
CS(=O)(=O)c1cccc(N2CCN(Cc3ccc(C(F)(F)F)c(F)c3)[C@@H](c3ccccc3)C2)c1 (single isomer, unassigned)	5.12

Enquiry: For the molecule CC(C)[C@@H]1CN(c2cccc(S(C)(=O)=O)c2)CCN1C(=O)OCC(C)(C)C , give its reported pIC50.
Return: 5.02

Enquiry: Supply pIC50 value. Item: CC(C)C[C@@H]1CN(c2cccc(S(C)(=O)=O)c2)CCN1C(=O)OC(C)(C)C
Return: 5.54

Enquiry: Input CCOC(=O)CCN(C)C(=O)c1cnc(N2CCN(c3ccc(F)c(S(C)(=O)=O)c3)C[C@H]2C(C)C)nc1C(F)(F)F , output reported pIC50.
Return: 5.94

Enquiry: Give pIC50 for the following molecule: C[C@]1(c2ccccc2)CN(c2cccc(S(C)(=O)=O)c2)CCN1Cc1ccc(C(F)(F)F)c(Cl)c1 (single isomer, unassigned)
Return: 5.13

Enquiry: Give the measured pIC50 for CC[C@@H](O)c1cnc(N2CCN(c3ccc(F)c(S(C)(=O)=O)c3)C[C@H]2C(C)C)nc1C(F)(F)F (single isomer, unassigned)
Return: 6.16

----------
assayTarget: LXR β LBD protein (Homo sapiens (Human), UniProt P55055)
Sequence (P55055 222-460): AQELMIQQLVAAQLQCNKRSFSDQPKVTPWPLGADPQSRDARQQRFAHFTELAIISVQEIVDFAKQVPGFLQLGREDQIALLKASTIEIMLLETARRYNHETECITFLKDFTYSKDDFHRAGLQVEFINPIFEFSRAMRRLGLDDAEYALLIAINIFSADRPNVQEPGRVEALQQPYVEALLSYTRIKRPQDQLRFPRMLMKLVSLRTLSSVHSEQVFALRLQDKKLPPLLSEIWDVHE
assayExplanation: biochemical
Type: biochemical
conditionLabel: Biological Test Example 3, agonist mode
Attribute: FRET LXRβ efficacy

molecule	parameterMeasured	readoutValue
CS(=O)(=O)c1cccc(N2CCN(C[C@@H]3CCN(CC(F)(F)F)C3)[C@@H](c3ccccc3)C2)c1 (single isomer, unassigned) [48-61]	FRET LXRβ efficacy	112 (23) %
CS(=O)(=O)c1cc(N2CCN(C[C@H]3CC[C@@H](C(F)(F)F)CC3)[C@@H](c3ccc(F)cc3)C2)ccc1F [48-48]	FRET LXRβ efficacy	40%

Proceed to the following item.
Enquiry: Respond only with FRET LXRβ efficacy recorded for CS(=O)(=O)c1cccc(N2CCN(C[C@H]3CCN(CC(F)(F)F)C3)[C@@H](c3ccccc3)C2)c1 (single isomer, unassigned) [48-63]
Return: 1553 (30) %

----------
Quick list: Cell LXRα efficacy per entry.
assayTarget: Gal4 DNA binding domain fused to the LBD of LXRα in HEK293 cells (Homo sapiens (Human))
assayExplanation: LXR luciferase transcriptional reporter gene assay, agonist mode, LXRα
Type: cell-based

Example entries and their recorded answers appear below.
compound	Cell LXRα efficacy
CS(=O)(=O)c1cccc(N2CCN(Cc3ccc(C(F)(F)F)nc3)C(c3ccccc3Br)C2)c1 (stereo not shown)	4383 (33) %
CC(C)[C@@H]1CN(c2cc(S(C)(=O)=O)c(C(N)=O)cc2Cl)CCN1c1nccc(C(F)(F)F)n1	2852 (7) %
Cc1csc(-c2ccc(N3CCN(c4ncc(CO)c(C(F)(F)F)n4)[C@H](C(C)C)C3)cc2S(C)(=O)=O)n1	66 (80) %

Let us examine a further case.
Enquiry: Indicate the recorded Cell LXRα efficacy value for this compound: CC(C)[C@H]1CN(c2cccc(S(C)(=O)=O)c2)CCN1CC1CCC(C(F)(F)F)NC1 (stereo partly shown)
Return: 1224 (75) %
